- Test system: N. gonorrhoeae WHO M
- ASSAY SUMMARY: Liquid broth MIC in Fastidious broth
- MEASUREMENT CONDITIONS: Neisseria gonorrhoeae, read-out: Minimum Inhibitory Concentration (MIC), N. gonorrhoeae WHO M
Measured MIC by item

{"COMPOUND": "O=C(NCCN1CCN(C(=O)N[C@@H](C(=O)N[C@H]2Cc3ccc(F)c(C(=O)O)c3OB2O)c2cc(F)c(O)c(O)c2Cl)C(=O)C1=O)Nc1ccncc1 [Example 221]", "SUBJECT OF TEST": "N. gonorrhoeae WHO M", "MIC": "4 to 8 µg/mL"}
{"COMPOUND": "O=C(O)c1cccc2c1OB(O)[C@@H](NC(=O)[C@@H](NC(=O)N1CCCCC1=O)c1ccc(P(=O)(O)O)cc1)C2 [Example 36]", "SUBJECT OF TEST": "N. gonorrhoeae WHO M", "MIC": "1 to 2 µg/mL"}
{"COMPOUND": "CS(=O)(=O)N1CCN(C(=O)N[C@@H](C(=O)N[C@H]2Cc3cccc(C(=O)O)c3OB2O)c2ccc(P(=O)(O)O)c(F)c2)C1=O (single isomer, unassigned) [Example 15]", "SUBJECT OF TEST": "N. gonorrhoeae WHO M", "MIC": "< 1 µg/mL"}
{"COMPOUND": "O=C(N[C@H](C(=O)N[C@H]1Cc2cccc(C(=O)O)c2OB1O)c1ccc(P(=O)(O)O)cc1)c1ccc(C(F)(F)F)cn1 (single isomer, unassigned) [Example 192]", "SUBJECT OF TEST": "N. gonorrhoeae WHO M", "MIC": "< 1 µg/mL"}
{"COMPOUND": "CS(=O)(=O)NC(C(=O)N[C@H]1Cc2cccc(C(=O)O)c2OB1O)c1ccc(P(=O)(O)O)cc1 (stereo partly shown) [Example 59]", "SUBJECT OF TEST": "N. gonorrhoeae WHO M", "MIC": "4 to 8 µg/mL"}
{"COMPOUND": "O=C(CN1CCN(C(=O)N[C@@H](C(=O)N[C@H]2Cc3ccc(F)c(C(=O)O)c3OB2O)c2cc(F)c(O)c(O)c2Cl)C(=O)C1=O)NCc1nccs1 [Example 241]", "SUBJECT OF TEST": "N. gonorrhoeae WHO M", "MIC": "4 to 8 µg/mL"}
{"COMPOUND": "O=C(O)c1cccc2c1OB(O)[C@@H](NC(=O)[C@H](NC(=O)c1cnc3sccn3c1=O)c1ccc(P(=O)(O)O)cc1)C2 (single isomer, unassigned) [Example 195]", "SUBJECT OF TEST": "N. gonorrhoeae WHO M", "MIC": "1 to 2 µg/mL"}

---

- System: N. gonorrhoeae WHO Z
- ASSAY SUMMARY: Liquid broth MIC in Fastidious broth
- MEASUREMENT CONDITIONS: Neisseria gonorrhoeae, read-out: Minimum Inhibitory Concentration (MIC), N. gonorrhoeae WHO Z
// reported MIC for each item listed
MEASURED PARAMETER: MIC

{"COMPOUND": "CCN1CCN(C(=O)NC(C(=O)N[C@H]2Cc3cccc(C(=O)O)c3OB2O)c2ccc(P(=O)(O)O)cc2F)C(=O)C1=O (stereo partly shown)", "MEASURED VALUE": "< 1 µg/mL"}
{"COMPOUND": "NCCN1CCN(C(=O)NC(C(=O)N[C@H]2Cc3cccc(C(=O)O)c3OB2O)c2ccc(P(=O)(O)O)cc2)C(=O)C1=O (stereo partly shown)", "MEASURED VALUE": "1 to 2 µg/mL"}
{"COMPOUND": "CS(=O)(=O)N1CCN(C(=O)NC(C(=O)N[C@H]2Cc3cccc(C(=O)O)c3OB2O)c2ccc(P(=O)(O)O)c(F)c2O)C1=O (stereo partly shown)", "MEASURED VALUE": "1 to 2 µg/mL"}
{"COMPOUND": "CS(=O)(=O)N1CCN(C(=O)N[C@@H](C(=O)N[C@H]2Cc3cccc(C(=O)O)c3OB2O)c2ccc(P(=O)(O)O)c(F)c2)C1=O (single isomer, unassigned)", "MEASURED VALUE": "< 1 µg/mL"}

---

Measured MIC accompanies every entry in the list below.
- System: A. baumannii ATCC 19606
- ASSAY SUMMARY: microbe, parasite or virus in culture
- Assay type: cell-based
- MEASUREMENT CONDITIONS: Acinetobacter baumannii, ATCC19606, read-out: MIC, A. baumannii ATCC 19606

{"COMPOUND": "NS(=O)(=O)NC(C(=O)N[C@H]1Cc2cccc(C(=O)O)c2OB1O)c1ccc(P(=O)(O)O)cc1 (some centres unmarked)", "MIC": "> 128 µg/mL"}
{"COMPOUND": "O=C(N[C@H](C(=O)N[C@H]1Cc2cccc(C(=O)O)c2OB1O)c1ccc(P(=O)(O)O)cc1)c1cnc2ccnn2c1 (single isomer, unassigned)", "MIC": "> 128 µg/mL"}
{"COMPOUND": "O=C(O)c1cccc2c1OB(O)[C@@H](NC(=O)C(NC(=O)c1ncccc1Cl)c1ccc(P(=O)(O)O)cc1)C2 (some centres unmarked)", "MIC": "> 128 µg/mL"}
{"COMPOUND": "O=C(N[C@@H](C(=O)N[C@H]1Cc2cccc(C(=O)O)c2OB1O)c1ccc(P(=O)(O)O)cc1)c1cnc2cccn2c1 (single isomer, unassigned)", "MIC": "> 128 µg/mL"}
{"COMPOUND": "CS(=O)(=O)N1CCC[C@H]1C(=O)N[C@H](C(=O)N[C@H]1Cc2cccc(C(=O)O)c2OB1O)c1ccc(P(=O)(O)O)cc1", "MIC": "> 128 µg/mL"}
{"COMPOUND": "O=C(N[C@@H](C(=O)N[C@H]1Cc2cccc(C(=O)O)c2OB1O)c1ccc(P(=O)(O)O)cc1)c1cnc2ccnn2c1 (single isomer, unassigned)", "MIC": "> 128 µg/mL"}
{"COMPOUND": "CCN1CCN(C(=O)N[C@@H](C(=O)N[C@H]2Cc3ccc(F)c(C(=O)O)c3OB2O)c2ccc(P(=O)(O)O)cc2)C(=O)C1=O (single isomer, unassigned)", "MIC": "32 to 64 µg/mL"}
{"COMPOUND": "CS(=O)(=O)N1CCN(C(=O)N[C@@H](C(=O)N[C@H]2Cc3cccc(C(=O)O)c3OB2O)c2cc(F)c(P(=O)(O)O)c(F)c2)C1=O (single isomer, unassigned)", "MIC": "32 to 64 µg/mL"}
{"COMPOUND": "NC(C(=O)N[C@H]1Cc2ccc(F)c(C(=O)O)c2OB1O)c1ccc(P(=O)(O)O)cc1 (some centres unmarked)", "MIC": "> 128 µg/mL"}
{"COMPOUND": "CS(=O)(=O)N1CCN(C(=O)N[C@@H](C(=O)N[C@H]2Cc3ccc(F)c(C(=O)O)c3OB2O)c2ccc(P(=O)(O)O)c(F)c2F)C1=O", "MIC": "> 128 µg/mL"}
{"COMPOUND": "O=C(O)c1cccc2c1OB(O)[C@@H](NC(=O)[C@H](NC(=O)N1CCN(Cc3cc(F)c(O)c(O)c3Cl)C(=O)C1=O)c1ccc(P(=O)(O)O)cc1)C2", "MIC": "< 1 µg/mL"}
{"COMPOUND": "CCN1CCN(C(=O)NC(C(=O)N[C@H]2Cc3cccc(C(=O)O)c3OB2O)c2cccc(CP(=O)(O)O)c2)C(=O)C1=O (some centres unmarked)", "MIC": "32 to 64 µg/mL"}
{"COMPOUND": "O=C(NC(C(=O)N[C@H]1Cc2cccc(C(=O)O)c2OB1O)c1ccc(P(=O)(O)O)cc1)c1ccc(Cl)cn1 (some centres unmarked)", "MIC": "> 128 µg/mL"}
{"COMPOUND": "O=C(O)c1cccc2c1OB(O)[C@@H](NC(=O)[C@H](NC(=O)c1c[nH]ccc1=O)c1ccc(P(=O)(O)O)cc1)C2", "MIC": "> 128 µg/mL"}

---

# key: entry, value: MIC
- Test system: P. aeruginosa ATCC 27853
- ASSAY SUMMARY: microbe, parasite or virus in culture
- Assay type: cell-based
- MEASUREMENT CONDITIONS: Pseudomonas aeruginosa, ATCC27853, read-out: Minimum inhibitory concentration, P. aeruginosa ATCC 27853

{"MOLECULE": "O=C(NCCCN1CCN(C(=O)N[C@H](C(=O)N[C@H]2Cc3ccc(F)c(C(=O)O)c3OB2O)c2cc(F)c(O)c(O)c2Cl)C(=O)C1=O)c1cccc(O)c1Cl", "MIC": "32 to 64 µg/mL"}
{"MOLECULE": "O=C(CN1CCN(C(=O)NC(C(=O)N[C@H]2Cc3ccc(F)c(C(=O)O)c3OB2O)c2cc(F)c(O)c(O)c2Cl)C(=O)C1=O)Nc1nccs1 (stereo partly drawn)", "MIC": "2 to 4 µg/mL"}
{"MOLECULE": "O=C(O)c1c(F)ccc2c1OB(O)[C@@H](NC(=O)[C@H](NC(=O)N1CCN(C3CCN(C(=O)c4cc(O)cc(O)c4)CC3)C1=O)c1cc(F)c(O)c(O)c1F)C2", "MIC": "< 1 µg/mL"}
{"MOLECULE": "O=C(NCCCN1CCN(C(=O)N[C@@H](C(=O)N[C@H]2Cc3ccc(F)c(C(=O)O)c3OB2O)c2cc(F)c(O)c(O)c2Cl)C1=O)Nc1cccc(O)c1", "MIC": "2 to 4 µg/mL"}
{"MOLECULE": "O=C(O)c1c(F)ccc2c1OB(O)[C@@H](NC(=O)[C@H](NC(=O)N1CCN(C3CCN(C(=O)Nc4cc(F)c(F)c(O)c4F)CC3)C(=O)C1=O)c1cc(F)c(O)c(O)c1Cl)C2", "MIC": "2 to 4 µg/mL"}
{"MOLECULE": "O=C(O)c1c(F)ccc2c1OB(O)[C@@H](NC(=O)C(NC(=O)N1CCN(C3CCN(C(=O)Nc4ccc(F)c(O)c4)CC3)C(=O)C1=O)c1cc(F)c(O)c(O)c1Cl)C2 (stereo partly drawn)", "MIC": "2 to 4 µg/mL"}
{"MOLECULE": "O=C(O)c1c(F)ccc2c1OB(O)[C@@H](NC(=O)[C@H](NC(=O)N1CCN(C3CCN(C(=O)c4cccc(O)c4Cl)CC3)C1=O)c1cc(F)c(O)c(O)c1Cl)C2 (single isomer, unassigned)", "MIC": "< 1 µg/mL"}
{"MOLECULE": "O=C(O)c1c(F)ccc2c1OB(O)[C@@H](NC(=O)[C@H](NC(=O)N1CCN(C3CCN(C(=O)c4cc(O)c(F)c(O)c4F)CC3)C1=O)c1cc(F)c(O)c(O)c1Cl)C2 (single isomer, unassigned)", "MIC": "< 1 µg/mL"}
{"MOLECULE": "O=C(O)c1c(F)ccc2c1OB(O)[C@@H](NC(=O)[C@H](NC(=O)N1CCN(C3CCN(C(=O)c4cc(O)ccc4F)CC3)C1=O)c1cc(F)c(O)c(O)c1Cl)C2 (single isomer, unassigned)", "MIC": "< 1 µg/mL"}
{"MOLECULE": "O=C(NCCS(=O)(=O)N1CCN(C(=O)NC(C(=O)N[C@H]2Cc3ccc(F)c(C(=O)O)c3OB2O)c2cc(F)c(O)c(O)c2Cl)C1=O)c1cccc(O)c1 (stereo partly drawn)", "MIC": "2 to 4 µg/mL"}
{"MOLECULE": "O=C(O)c1c(F)ccc2c1OB(O)[C@@H](NC(=O)C(NC(=O)N1CCN(C3CCN(C(=O)Nc4ccc(F)c(O)c4F)CC3)C1=O)c1cc(F)c(O)c(O)c1Cl)C2 (stereo partly drawn)", "MIC": "2 to 4 µg/mL"}
{"MOLECULE": "O=C(NCCCS(=O)(=O)N1CCN(C(=O)N[C@H](C(=O)N[C@H]2Cc3ccc(F)c(C(=O)O)c3OB2O)c2ccc(P(=O)(O)O)cc2)C1=O)c1ccc(O)c(O)c1Cl (single isomer, unassigned)", "MIC": "> 128 µg/mL"}
